Just for reference, paper PMC11079029 is where these values come from.

target: T1, PRPF40A WW12 (tandem WW domains, residues 141-236) (human, UniProt O75400 141-236); assay: ITC; GB1-peptide or GB1-SF1 construct in the cell, PRPF40A WW12 in the syringe (as shown in Supplementary Figures 7 and 16A); 25 °C, 20 mM sodium phosphate pH 6.5, 100 mM NaCl; one-site binding model; at least duplicates; affinities apparent; details: both partners purified
T1 construct: A few vector residues probably remain at the N-terminus after TEV cleavage (pETM11, NcoI site); 15N-labelled in the NMR experiments; also called PRPF40A WW tandem; WW12 wt; source: E. coli BL21(DE3), purified (Ni-NTA, TEV digestion, reverse Ni-NTA, SEC); not shown: His6, N-terminal, cleaved
T1 sequence (O75400 141-236): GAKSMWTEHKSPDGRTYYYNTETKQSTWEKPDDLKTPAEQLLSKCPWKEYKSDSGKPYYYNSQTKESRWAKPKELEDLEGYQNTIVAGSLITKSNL
READOUT_LABEL: Kd (µM)
Give bare numbers, in µM.

Dear reader, for each entry below, please note its Kd.
1. PPPPPPPPPPPPPPPPPPP [GB1-polyproline peptide P19]
2. GB1-SF1 Pro B (residues 468-539) (domain or fragment, UniProt Q15637 468-539, looked up, splicing factor 1 (SF1), residues 468-539 of the proline-rich C-terminal region; His6-GB1-TEV site cassette of the pET24 vector, not cleaved; source: E. coli BL21(DE3), purified (Ni-NTA, SEC); not shown: GB1, N-terminal, kept) GMMPPPPMGMMPPPPPPPSGQPPPPPSGPLPPWQQQQQQPPPPPPPSSSMASSTPLPWQQNTTTTTTSAGTG
3. PPPPPPPPPPPPPPPP [GB1-polyproline peptide P16]
4. GB1-SF1 Pro A (residues 410-468) (domain or fragment, UniProt Q15637 410-468, looked up, splicing factor 1 (SF1), residues 410-468 of the proline-rich C-terminal region; His6-GB1-TEV site cassette of the pET24 vector, not cleaved; source: E. coli BL21(DE3), purified (Ni-NTA, SEC); not shown: GB1, N-terminal, kept) GHPMQHNPNGPPPPWMQPPPPPMNQGPHPPGHHGPPPMDQYLGSTPVGSGVYRLHQGKG

### Response
1: 6.76; 2: 20.6; 3: 3.35; 4: 25.1
